Numbers sourced from the supplement of paper PMC11246515.

Reported total protein half-life in vivo values for a set of sequences
# measurement notes: total protein half-life in vivo (active degradation + dilution); higher = more stable protein
# settings: wild type E. coli NCM3722; growth: N-lim chemostat; doubling time 12 h
endpoint label: total protein half-life in vivo (h)

[
  {
    "biopolymer sequence": "MENKYSRLQISIHWLVFLLVIAAYCAMEFRGFFPRSDRPLINMIHVSCGISILVLMVVRLLLRLKYPTPPIIPKPKPMMTGLAHLGHLVIYLLFIALPVIGLVMMYNRGNPWFAFGLTMPYASEANFERVDSLKSWHETLANLGYFVIGLHAAAALAHHYFWKDNTLLRMMPRKRS [P0ABE5]",
    "unit tag": "h",
    "reported value": 10.6
  },
  {
    "biopolymer sequence": "MKRVLFFLLMIFVSFGVIADCEIQAKDHDCFTIFAKGTIFSAFPVLNNKAMWRWYQNEDIGEYYWQTELGTCKNNKFTPSGARLLIRVGSLRLNENHAIKGTLQELINTAEKTAFLGDRFRSYIRAGIYQKKSSDPVQLLAVLDNSIMVKYFKDEKPTYARMTAHLPNKNESYECLIKIQHELIRSEEK",
    "unit tag": "h",
    "reported value": 4.57
  }
]

###

# measurement notes: total protein half-life in vivo (active degradation + dilution); higher = more stable protein
# settings: E. coli NCM3722 delta-clpP; growth: N-lim chemostat; doubling time 6 h
We use 6 h as the dividing line for total protein half-life in vivo: on or above the line is true, below is false.

[
  {
    "biopolymer sequence": "MPPRALLLVDLQNDFCAGGALAVPEGDSTVDVANRLIDWCQSRGEAVIASQDWHPANHGSFASQHGVEPYTPGQLDGLPQTFWPDHCVQNSEGAQLHPLLHQKAIAAVFHKGENPLVDSYSAFFDNGRRQKTSLDDWLRDHEIDELIVMGLATDYCVKFTVLDALQLGYKVNVITDGCRGVNIQPQDSAHAFMEMSAAGATLYTLADWEETQG",
    "answer label": "false"
  },
  {
    "biopolymer sequence": "MQLNKVLKGLMIALPVMAIAACSSNKNASNDGSEGMLGAGTGMDANGGNGNMSSEEQARLQMQQLQQNNIVYFDLDKYDIRSDFAQMLDAHANFLRSNPSYKVTVEGHADERGTPEYNISLGERRANAVKMYLQGKGVSADQISIVSYGKEKPAVLGHDEAAYSKNRRAVLVY [P0A912]",
    "answer label": "true"
  },
  {
    "biopolymer sequence": "MMKTMRIAAIPGDGIGKEVLPEGIRVLQAAAERWGFALSFEQMEWASCEYYSHHGKMMPDDWHEQLSRFDAIYFGAVGWPDTVPDHISLWGSLLKFRREFDQYVNLRPVRLFPGVPCPLAGKQPGDIDFYVVRENTEGEYSSLGGRVNEGTEHEVVIQESVFTRRGVDRILRYAFELAQSRPRKTLTSATKSNGLAISMPYWDERVEAMAENYPEIRWDKQHIDILCARFVMQPERFDVVVASNLFGDILSDLGPACTGTIGIAPSANLNPERTFPSLFEPVHGSAPDIYGKNIANPIATIWAGAMMLDFLGNGDERFQQAHNGILAAIEEVIAHGPKTPDMKGNATTPQVADAICKIILR",
    "answer label": "false"
  },
  {
    "biopolymer sequence": "MSAFTPASEVLLRHSDDFEQSRILFAGDLQDDLPARLDTAASRAHTQQFHHWQVLSRQMGDNARFSLVATADDVADCDTLIYYWPKNKPEAQFQLMNLLSLLPVGTDIFVVGENRSGVRSAEQMLADYAPLNKVDSARRCGLYFGRLEKQPVFDAEKFWGEYSVDGLTVKTLPGVFSRDGLDVGSQLLLSTLTPHTKGKVLDVGCGAGVLSVAFARHSPKIRLTLCDVSAPAVEASRATLAANGVEGEVFASNVFSEVKGRFDMIISNPPFHDGMQTSLDAAQTLIRGAVRHLNSGGELRIVANAFLPYPDVLDETFGFHEVIAQTGRFKVYRAIMTRQAKKG",
    "answer label": "false"
  },
  {
    "biopolymer sequence": "MKLSRISAINWNKISDDKDLEVWNRLTSNFWLPEKVPLSNDIPAWQTLTVVEQQLTMRVFTGLTLLDTLQNVIGAPSLMPDALTPHEEAVLSNISFMEAVHARSYSSIFSTLCQTKDVDAAYAWSEENAPLQRKAQIIQQHYRGDDPLKKKIASVFLESFLFYSGFWLPMYFSSRGKLTNTADLIRLIIRDEAVHGYYIGYKYQKNMEKISLGQREELKSFAFDLLLELYDNELQYTDELYAETPWADDVKAFLCYNANKALMNLGYEPLFPAEMAEVNPAILAALSPNADENHDFFSGSGSSYVMGKAVETEDEDWNF",
    "answer label": "false"
  },
  {
    "biopolymer sequence": "MTIWVDADACPNVIKEILYRAAERMQMPLVLVANQSLRVPPSRFIRTLRVAAGFDVADNEIVRQCEAGDLVITADIPLAAEAIEKGAAALNPRGERYTPATIRERLTMRDFMDTLRASGIQTGGPDSLSQRDRQAFAAELEKWWLEVQRSRG [P0A8D3]",
    "answer label": "false"
  },
  {
    "biopolymer sequence": "MTKQVKIYHNPRCSKSRETLNLLKENGVEPEVVLYLETPADAATLRDLLKILGMNSARELMRQKEDLYKELNLADSSLSEEALIQAMVDNPKLMERPIVVANGKARIGRPPEQVLEIVG",
    "answer label": "false"
  },
  {
    "biopolymer sequence": "MNYHQYYPVDIVNGPGTRCTLFVSGCVHECPGCYNKSTWRVNSGQPFTKAMEDQIINDLNDTRIKRQGISLSGGDPLHPQNVPDILKLVQRIRAECPGKDIWVWTGYKLDELNAAQMQVVDLINVLVDGKFVQDLKDPSLIWRGSSNQVVHHLR [P0A9N8]",
    "answer label": "false"
  },
  {
    "biopolymer sequence": "MNYEIKQEEKRTVAGFHLVGPWEQTVKKGFEQLMMWVDSKNIVPKEWVAVYYDNPDETPAEKLRCDTVVTVPGYFTLPENSEGVILTEITGGQYAVAVARVVGDDFAKPWYQFFNSLLQDSAYEMLPKPCFEVYLNNGAEDGYWDIEMYVAVQPKHH",
    "answer label": "false"
  },
  {
    "biopolymer sequence": "MSHTIRDKQKLKARASKIQGQVVALKKMLDEPHECAAVLQQIAAIRGAVNGLMREVIKGHLTEHIVHQGDELKREEDLDVVLKVLDSYIK",
    "answer label": "true"
  },
  {
    "biopolymer sequence": "MFILWYSASSTFGKDSDIVMGVRAQQKEKTRRSLVEAAFSQLSAERSFASLSLREVAREAGIAPTSFYRHFRDVDELGLTMVDESGLMLRQLMRQARQRIAKGGSVIRTSVSTFMEFIGNNPNAFRLLLRERSGTSAAFRAAVAREIQHFIAELADYLELENHMPRAFTEAQAEAMVTIVFSAGAEALDVGVEQRRQLEERLVLQLRMISKGAYYWYRREQEKTAIIPGNVKDE [P0ACU5]",
    "answer label": "false"
  },
  {
    "biopolymer sequence": "MATNAKPVYKRILLKLSGEALQGTEGFGIDASILDRMAQEIKELVELGIQVGVVIGGGNLFRGAGLAKAGMNRVVGDHMGMLATVMNGLAMRDALHRAYVNARLMSAIPLNGVCDSYSWAEAISLLRNNRVVILSAGTGNPFFTTDSAACLRGIEIEADVVLKATKVDGVFTADPAKDPTATMYEQLTYSEVLEKELKVMDLAAFTLARDHKLPIRVFNMNKPGALRRVVMGEKEGTLITE [P0A7E9]",
    "answer label": "false"
  }
]

###

# measurement notes: total protein half-life in vivo (active degradation + dilution); higher = more stable protein
# settings: E. coli NCM3722 delta-clpP; growth: N-lim chemostat; doubling time 6 h

[
  {
    "biopolymer sequence": "MGQLIDGVWHDTWYDTKSTGGKFQRSASAFRNWLTADGAPGPTGTGGFIAEKDRYHLYVSLACPWAHRTLIMRKLKGLEPFISVSVVNPLMLENGWTFDDSFPGATGDTLYQNEFLYQLYLHADPHYSGRVTVPVLWDKKNHTIVSNESAEIIRMFNTAFDALGAKAGDYYPPALQTKIDELNGWIYDTVNNGVYKAGFATSQEAYDEAVAKVFESLARLEQILGQHRYLTGNQLTEADIRLWTTLVRFDPVYVTHFKCDKHRISDYLNLYGFLRDIYQMPGIAETVNFDHIRNHYFRSHKTINPTGIISIGPWQDLDEPHGRDVRFG",
    "total protein half-life in vivo": "4.89 h"
  },
  {
    "biopolymer sequence": "MHCPFCFAVDTKVIDSRLVGEGSSVRRRRQCLVCNERFTTFEVAELVMPRVVKSNDVREPFNEEKLRSGMLRALEKRPVSSDDVEMAINHIKSQLRATGEREVPSKMIGNLVMEQLKKLDKVAYIRFASVYRSFEDIKEFGEEIARLED [P0A8D0]",
    "total protein half-life in vivo": "5.91 h"
  },
  {
    "biopolymer sequence": "MNNMNVIIADDHPIVLFGIRKSLEQIEWVNVVGEFEDSTALINNLPKLDAHVLITDLSMPGDKYGDGITLIKYIKRHFPSLSIIVLTMNNNPAILSAVLDLDIEGIVLKQGAPTDLPKALAALQKGKKFTPESVSRLLEKISAGGYGDKRLSPKESEVLRLFAEGFLVTEIAKKLNRSIKTISSQKKSAMMKLGVENDIALLNYLSSVTLSPADKD [P0DMC7]",
    "total protein half-life in vivo": "4.22 h"
  },
  {
    "biopolymer sequence": "MKKIACLSALAAVLAFTAGTSVAATSTVTGGYAQSDAQGQMNKMGGFNLKYRYEEDNSPLGVIGSFTYTEKSRTASSGDYNKNQYYGITAGPAYRINDWASIYGVVGVGYGKFQTTEYPTYKHDTSDYGFSYGAGLQFNPMENVALDFSYEQSRIRSVDVGTWIAGVGYRF [P0A917]",
    "total protein half-life in vivo": "6.37 h"
  },
  {
    "biopolymer sequence": "MNMKKLATLVSAVALSATVSANAMAKDTIALVVSTLNNPFFVSLKDGAQKEADKLGYNLVVLDSQNNPAKELANVQDLTVRGTKILLINPTDSDAVGNAVKMANQANIPVITLDRQATKGEVVSHIASDNVLGGKIAGDYIAKKAGEGAKVIELQGIAGTSAARERGEGFQQAVAAHKFNVLASQPADFDRIKGLNVMQNLLTAHPDVQAVFAQNDEMALGALRALQTAGKSDVMVVGFDGTPDGEKAVNDGKLAATIAQLPDQIGAKGVETADKVLKGEKVQAKYPVDLKLVVKQ",
    "total protein half-life in vivo": "5.92 h"
  },
  {
    "biopolymer sequence": "MQERHTEQDYRALLIADTPIIDVRAPIEFEHGAMPAAINLPLMNNDERAAVGTCYKQQGSDAALALGHKLVAGEIRQQRMDAWRAACLQNPQGILCCARGGQRSHIVQSWLHAAGIDYPLVEGGYKALRQTAIQATIELAQKPIVLIGGCTGSGKTLLVQQQPNGVDLEGLARHRGSAFGRTLQPQLSQASFENLLAAEMLKTDARQNLRLWVLEDESRMIGSNHLPECLRERMTQAAIAVVEDPFEIRLERLNEEYFLRMHHDFTHAYGDEQGWQEYCEYLHHGLSAIKRRLGLQRYNELAARLDAALTTQLTTGSTDGHLAWLVPLLEEYYDPMYRYQLEKKAEKVVFRGEWAEVAEWVKAR",
    "total protein half-life in vivo": "4.43 h"
  }
]
